# assayed.system: SCRIB_1, Q14160
# Sequence (Q14160 718-814): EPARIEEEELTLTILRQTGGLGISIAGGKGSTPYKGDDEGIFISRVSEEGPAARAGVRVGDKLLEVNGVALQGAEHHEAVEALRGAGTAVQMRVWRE
# measurement.protocol: holdup assay
# Parameters: key: below the threshold = too weak to quantify, mostly under pKd 3.1 to 4
# measurement.parameters: plain residues with an end cap or a label only (N-terminal biotin on a linker: ado-ado)
measurement.type: pKd
Answers are plain numbers.

- binder: "MLSKQSESAI [FLVCR1, Q9Y5Y0]"
  pKd: 3.91
- binder: "PPYRHRNTVV [ERBB4, Q15303]"
  pKd: 3.92
- binder: "SAKVRTVTSV [RASL11B, Q9BPW5]"
  pKd: 4.17

q: Request the reported pKd associated with RRISSLESEV [GRIN2C, Q14957]
a: 4.69
